assay system: T1, recombinant rat MASP1 active protease (amino acids 302-704, C-terminal His Tag) (rat, UniProt Q8CHN8 302-704)
T1 sequence: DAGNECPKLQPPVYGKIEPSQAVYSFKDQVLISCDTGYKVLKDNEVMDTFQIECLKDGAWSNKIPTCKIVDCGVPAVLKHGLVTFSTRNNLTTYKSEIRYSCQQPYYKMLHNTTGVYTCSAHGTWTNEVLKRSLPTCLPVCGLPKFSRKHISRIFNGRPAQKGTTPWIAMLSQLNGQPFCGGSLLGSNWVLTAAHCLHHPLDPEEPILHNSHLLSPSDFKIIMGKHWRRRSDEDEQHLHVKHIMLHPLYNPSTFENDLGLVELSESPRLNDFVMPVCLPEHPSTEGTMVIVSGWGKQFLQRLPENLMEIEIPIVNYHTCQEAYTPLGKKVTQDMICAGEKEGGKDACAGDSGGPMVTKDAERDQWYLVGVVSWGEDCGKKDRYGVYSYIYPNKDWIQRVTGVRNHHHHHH
method description: cell-based or functional assay
Bridge positions count the residues as written; N and C are the ends. Square brackets hold non-standard residues; d marks the D form. Ends that are not written are not given here. Pro(cis-4-CF3) = O=C(O)[C@@H]1C[C@H](C(F)(F)F)CN1; tBuAla = CC(C)(C)C[C@H](N)C(=O)O; NMeC = CN[C@@H](CS)C(=O)O
value type: rat MASP1 IC50 (µM)
One number for each entry, in µM.

>>> measured("YICSRS[tBuAla]PPI[NMeC]I-NH2 (disulfide 3-11; N-terminus assumed; SMILES CC[C@H](C)[C@H](NC(=O)[C@@H]1CSSC[C@H](NC(=O)[C@@H](NC(=O)[C@@H](N)Cc2ccc(O)cc2)[C@@H](C)CC)C(=O)N[C@@H](CO)C(=O)N[C@@H](CCCNC(=N)N)C(=O)N[C@@H](CO)C(=O)N[C@@H](CC(C)(C)C)C(=O)N2CCC[C@H]2C(=O)N2CCC[C@H]2C(=O)N[C@@H]([C@@H](C)CC)C(=O)N1C)C(N)=O) [Example 182: YIC+SRS-((tBu)A)-PPI-((N-Me)C)+I-NH2]")
0.013

Please examine the following record next.
Specify reported rat MASP1 IC50 for the binder shown: AICSRS[tBuAla]P[Pro(cis-4-CF3)]I[NMeC]IPD-NH2 (disulfide 3-11; N-terminus assumed; SMILES CC[C@H](C)[C@H](NC(=O)[C@H](C)N)C(=O)N[C@H]1CSSC[C@@H](C(=O)N[C@H](C(=O)N2CCC[C@H]2C(=O)N[C@@H](CC(=O)O)C(N)=O)[C@@H](C)CC)N(C)C(=O)[C@H]([C@@H](C)CC)NC(=O)[C@@H]2C[C@H](C(F)(F)F)CN2C(=O)[C@@H]2CCCN2C(=O)[C@H](CC(C)(C)C)NC(=O)[C@H](CO)NC(=O)[C@H](CCCNC(=N)N)NC(=O)[C@H](CO)NC1=O) [Example 128: AIC+SRS-((tBu)A)-P-((4-CF3)P)-I-((N-Me)C)+IPD-NH2] 0.035
